Test: amyloid nucleation score (Sup35N fusion, yeast selection) (log enrichment); library NNK3; higher = more nucleation; inactive = no reads after selection;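 note: zero at mode of non-aggregating sequences after 7 days selection at 30°C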
metric_name: amyloid nucleation score

A selection of reference data follows.
entry_sequence | amyloid nucleation score
NYECNGWVGFVLTVPYGTIW | inactive
TFYDDYQDLQKLFARFWLPV | inactive
VHVRWVVRMVSWKYLAGILL | inactive
TFTLSCFTCNGFVSDVVHCD | 3.21
GFTRFFYLSRLMVGNMI | inactive

Q: Entry RNKSVVPHVLRELCFMVWLV : reported amyloid nucleation score = ?
Ans: inactive

Q: Try this sequence next: NLFYNEEDVLIQFVYQRTIW
Ans: inactive
